# growth AUC normalised to DMSO control listing for each entry below
# Test system: Shigella flexneri
# method notes: growth AUC normalised to DMSO control (fraction of control); higher = less growth inhibition, active = hit call of the paper
# experimental context: 20 µM
Structures can show the parent of a compound that is named as a salt.

- compound: "CCCCOC(=O)c1ccc(N)cc1"
  growth AUC normalised to DMSO control: 0.995
- compound: "CNCCC=C1c2ccccc2CCc2ccccc21 [Nortriptyline hydrochloride]"
  growth AUC normalised to DMSO control: 0.991
- compound: "Cc1cc(C)nc(NS(=O)(=O)c2ccc(N)cc2)n1 [Sulfamethazine sodium salt]"
  growth AUC normalised to DMSO control: 0.986
- compound: "CC(C)NNC(=O)c1ccncc1 [Iproniazide phosphate]"
  growth AUC normalised to DMSO control: 1
- compound: "Cc1ccccc1N1C(=O)c2cc(S(N)(=O)=O)c(Cl)cc2NC1C (centres undefined)"
  growth AUC normalised to DMSO control: 0.984
- compound: "CNCC[C@@H](Oc1ccccc1C)c1ccccc1 [Tomoxetine hydrochloride]"
  growth AUC normalised to DMSO control: 1.02
- compound: "CC#C[C@]1(O)CC[C@H]2[C@@H]3CCC4=CC(=O)CCC4=C3[C@@H](c3ccc(N(C)C)cc3)C[C@@]21C"
  growth AUC normalised to DMSO control: 0.988
- compound: "CC(=O)Nc1ccc(O)cc1"
  growth AUC normalised to DMSO control: 0.99
- compound: "c1ccc2c(c1)CCCC2C1=NCCN1 (centres undefined) [Tetrahydrozoline hydrochloride]"
  growth AUC normalised to DMSO control: 0.981
- compound: "O=C1NCN(c2ccccc2)C12CCN(CCCC(c1ccc(F)cc1)c1ccc(F)cc1)CC2"
  growth AUC normalised to DMSO control: 1.01
- compound: "COc1ccc(C(=O)c2ccccc2O)c(O)c1"
  growth AUC normalised to DMSO control: 0.983
- compound: "CN(C)CCOC(c1ccccc1)c1ccccc1 [Diphenhydramine hydrochloride]"
  growth AUC normalised to DMSO control: 0.976
- compound: "COCCCC/C(=N\\OCCN)c1ccc(C(F)(F)F)cc1 [Fluvoxamine maleate]"
  growth AUC normalised to DMSO control: 0.974
- compound: "CC(C)(C)NC[C@H](O)COc1nsnc1N1CCOCC1 [Timolol maleate salt]"
  growth AUC normalised to DMSO control: 1.01
- compound: "CCCCC1(COC(=O)CCC(=O)O)C(=O)N(c2ccccc2)N(c2ccccc2)C1=O"
  growth AUC normalised to DMSO control: 1
- compound: "CN1CCc2cccc3c2[C@H]1Cc1ccc(O)c(O)c1-3 [R(-) Apomorphine hydrochloride hemihydrate]"
  growth AUC normalised to DMSO control: 1
- compound: "CCc1oc2ccccc2c1C(=O)c1cc(Br)c(O)c(Br)c1"
  growth AUC normalised to DMSO control: 0.989
- compound: "COc1ccc2[nH]c([S+]([O-])Cc3ncc(C)c(OC)c3C)nc2n1 (centres undefined)"
  growth AUC normalised to DMSO control: 1
- compound: "CCCc1nc2c(C)cc(-c3nc4ccccc4n3C)cc2n1Cc1ccc(-c2ccccc2C(=O)O)cc1"
  growth AUC normalised to DMSO control: 1.02

----------
# Test system: S. enterica typhimurium WT
# method notes: growth AUC normalised to DMSO control (median) (fraction of control); higher = less growth inhibition, active = hit call of the paper
# experimental context: 20 µM
Counter-ions that a name gives are not always drawn.
# growth AUC normalised to DMSO control listing for each entry below

- compound: "Cn1cc([S+](C)[O-])c(=O)c2ccc(F)cc21 (configuration not stated)"
  growth AUC normalised to DMSO control: 0.992
- compound: "CN1CCN(CCCN2c3ccccc3Sc3ccc(S(=O)(=O)N(C)C)cc32)CC1 [Thioproperazine dimesylate]"
  growth AUC normalised to DMSO control: 0.994
- compound: "CC(C)Cc1ccc(CC(=O)O)cc1"
  growth AUC normalised to DMSO control: 1.01
- compound: "Cc1ccc(C)c(OCCCC(C)(C)C(=O)O)c1"
  growth AUC normalised to DMSO control: 1
- compound: "O=C(O)/C=C/c1ccc(Cn2ccnc2)cc1 [Ozagrel hydrochloride]"
  growth AUC normalised to DMSO control: 1
- compound: "CC(=O)Oc1ccc(C(c2ccc(OC(C)=O)cc2)c2ccccn2)cc1"
  growth AUC normalised to DMSO control: 1.01
- compound: "Cc1cc2c(cc1S(N)(=O)=O)S(=O)(=O)CCC2"
  growth AUC normalised to DMSO control: 1.02

----------
# growth AUC normalised to DMSO control listing for each entry below
# Test system: S. enterica typhimurium tolC KO
# method notes: growth AUC normalised to DMSO control (median) (fraction of control); higher = less growth inhibition, active = hit call of the paper
# experimental context: 20 µM
Where a name gives a salt, the structure may show the parent alone.

- molecule: "Cc1ccc(Nc2c(F)cccc2Cl)c(CC(=O)O)c1"
  growth AUC normalised to DMSO control: 1
- molecule: "c1ccc(CN(CC2=NCCN2)c2ccccc2)cc1 [Antazoline hydrochloride]"
  growth AUC normalised to DMSO control: 1
- molecule: "C=CCSCC1Nc2cc(Cl)c(S(N)(=O)=O)cc2S(=O)(=O)N1 (configuration not stated) [Althiazide]"
  growth AUC normalised to DMSO control: 1.01
- molecule: "CCOC(=O)[C@H](CCc1ccccc1)N[C@@H](C)C(=O)N1C(=O)N(C)C[C@H]1C(=O)O [Imidapril hydrochloride]"
  growth AUC normalised to DMSO control: 1
- molecule: "Cc1cc2c(cc1S(N)(=O)=O)S(=O)(=O)CCC2"
  growth AUC normalised to DMSO control: 1.01
- molecule: "CC(=O)Nc1nnc(S(N)(=O)=O)s1 [Acetazolamide]"
  growth AUC normalised to DMSO control: 0.998
- molecule: "CN1CCN(c2c(F)cc3c(=O)c(C(=O)O)cn(CCF)c3c2F)CC1"
  growth AUC normalised to DMSO control: 0.00549
- molecule: "Clc1ccc(CO/N=C(\\Cn2ccnc2)c2ccc(Cl)cc2Cl)c(Cl)c1 [Oxiconazole nitrate]"
  growth AUC normalised to DMSO control: 0.909
- molecule: "Cc1ccc(O)c([C@H](CCN(C(C)C)C(C)C)c2ccccc2)c1 [Tolterodine tartrate]"
  growth AUC normalised to DMSO control: 0.971
- molecule: "CCC(C)(CN(C)C)OC(=O)c1ccccc1 (configuration not stated) [Amyleine hydrochloride]"
  growth AUC normalised to DMSO control: 1.01
- molecule: "CCCC(=O)Nc1ccc(OCC(O)CNC(C)C)c(C(C)=O)c1 (configuration not stated) [Acebutolol hydrochloride]"
  growth AUC normalised to DMSO control: 1.01
- molecule: "CCCCNC(=N)NC(=N)N"
  growth AUC normalised to DMSO control: 0.991
- molecule: "CO[C@@]1(NC(=O)C2SC(=C(C(N)=O)C(=O)O)S2)C(=O)N2C(C(=O)O)=C(CSc3nnnn3C)CS[C@@H]21 (some centres not stated)"
  growth AUC normalised to DMSO control: 0.00413
- molecule: "COc1ccc2cc1Oc1ccc(cc1)C[C@H]1c3c(cc4c(c3Oc3cc5c(cc3OC)CCN(C)[C@@H]5C2)OCO4)CCN1C"
  growth AUC normalised to DMSO control: 0.998
- molecule: "CC(=O)Oc1c(C)cccc1C(=O)O"
  growth AUC normalised to DMSO control: 0.986
- molecule: "OC(c1cc(C(F)(F)F)nc2c(C(F)(F)F)cccc12)C1CCCCN1 (configuration not stated) [Mefloquine hydrochloride]"
  growth AUC normalised to DMSO control: 0.948
- molecule: "O=C(N[C@H](CO)[C@H](O)c1ccc([N+](=O)[O-])cc1)C(Cl)Cl"
  growth AUC normalised to DMSO control: 0.00302

----------
# Tested on: Vibrio cholerae
# method notes: growth AUC normalised to DMSO control (fraction of control); higher = less growth inhibition, active = hit call of the paper
# experimental context: 20 µM
Where a name gives a salt, the structure may show the parent alone.

- molecule: "CCC(=O)[C@@]1(C)[C@H](C)C[C@H]2[C@@H]3CCC4=CC(=O)C=C[C@]4(C)[C@H]3[C@@H](O)C[C@@]21C [Rimexolone]"
  target desc: "Vibrio cholerae"
  growth AUC normalised to DMSO control: 1.01
- molecule: "O=C(O)COCCN1CCN(C(c2ccccc2)c2ccc(Cl)cc2)CC1 (stereo not drawn) [Cetirizine dihydrochloride]"
  target desc: "Vibrio cholerae"
  growth AUC normalised to DMSO control: 0.988
- molecule: "Nc1nc(NC2CC2)c2ncn([C@H]3C=C[C@@H](CO)C3)c2n1 [Abacavir sulfate]"
  target desc: "Vibrio cholerae"
  growth AUC normalised to DMSO control: 0.989

----------
# System: Vibrio cholerae
# method notes: growth AUC normalised to DMSO control (fraction of control); higher = less growth inhibition, active = hit call of the paper
# experimental context: 20 µM
Structures can show the parent of a compound that is named as a salt.
property: growth AUC normalised to DMSO control

- compound: "CCOc1cc(CC(=O)N[C@@H](CC(C)C)c2ccccc2N2CCCCC2)ccc1C(=O)O [Repaglinide]"
  measured value: 1.07
- compound: "Cc1ccc(C(=O)c2ccc(CC(=O)O)n2C)cc1 [Tolmetin sodium salt dihydrate]"
  measured value: 1.05
- compound: "CCC[C@@H]1C[C@@H](C(=O)N[C@@H]([C@H]2O[C@H](SC)[C@H](O)[C@@H](O)[C@H]2O)[C@H](C)Cl)N(C)C1 [Clindamycin hydrochloride]"
  measured value: 0.143
- compound: "CC1CS(=O)(=O)CCN1/N=C/c1ccc([N+](=O)[O-])o1 (stereo not given)"
  measured value: 0.00876
- compound: "O=C(CCCN1CCC(O)(c2ccc(Cl)cc2)CC1)c1ccc(F)cc1"
  measured value: 0.97
